Readings of self-cleavage for the listed variants
B1: Osa-1-4 twister ribozyme (parent)
chain: CCGCCUAACACUGCCAAUGCCGGUCCCAAGCCCGGAUAAAAGUGGAGGGGGCGG

Variants of: B1
Assay: self-cleavage, relative activity (ratio to wild type); higher = more cleavage; co-transcriptional
PROPERTY NAME: self-cleavage

CCGCCUAACACUGCCAAUGCCGGUCCCAACCCCGGAUAAAAGAGGAGGGGGCGG [G30C U43A]
0.05
CCGCCUAACACUGCCAAUGCCGGUCCCAAGCCCGGAUAAAUGUGGACGGGGCGG [A41U G47C]
0.11
CCGCCUAACACUGCCAAUUCCGGUCCCAAGCCCGGAUAAACGUGGAGGGGGCGG [A41C G19U]
0.15
CCGCCUAACACUGCCAAUGCCGGUCCCAAGCUCGGAGAAAAGUGGAGGGGGCGG [C32U U37G]
0.26
CCGCCUAACACUGCCAUUGCCGGUCCCAAGCCCGGAUAAAUGUGGAGGGGGCGG [A17U A41U]
0.96
CCGCCUAACACUGCCAAUGCCGGUCCCAAGCCCCGAUAAAAGUGGAGGGGCCGG [G34C G51C]
0.06
CCGCCUAACACUGCCAAUGACGGUCCCCAGCCCGGAUAAAAGUGGAGGGGGCGG [A28C C20A]
0.94
CCGCCUAAGACUGCCAAUGCCGGUCCCAAGCCCGGAUAAGAGUGGAGGGGGCGG [A40G C9G]
0.18
CCGCCUCACACUGCGAAUGCCGGUCCCAAGCCCGGAUAAAAGUGGAGGGGGCGG [A7C C15G]
0.07
CCGCCUAACACUGCCAAUGCCGGUCCCAAGCCCGGAUAAUAGUGGAGGGGGGGG [A40U C52G]
0.46
CCGCCUAACACUGCCAUUGCUGGUCCCAAGCCCGGAUAAAAGUGGAGGGGGCGG [A17U C21U]
1.05
